target: ATP-binding cassette transporter A1 (ABCA1) (UniProt P41233 1-2261, limits assumed); experiment: cell-based or functional assay
Sequence (P41233 whole entry): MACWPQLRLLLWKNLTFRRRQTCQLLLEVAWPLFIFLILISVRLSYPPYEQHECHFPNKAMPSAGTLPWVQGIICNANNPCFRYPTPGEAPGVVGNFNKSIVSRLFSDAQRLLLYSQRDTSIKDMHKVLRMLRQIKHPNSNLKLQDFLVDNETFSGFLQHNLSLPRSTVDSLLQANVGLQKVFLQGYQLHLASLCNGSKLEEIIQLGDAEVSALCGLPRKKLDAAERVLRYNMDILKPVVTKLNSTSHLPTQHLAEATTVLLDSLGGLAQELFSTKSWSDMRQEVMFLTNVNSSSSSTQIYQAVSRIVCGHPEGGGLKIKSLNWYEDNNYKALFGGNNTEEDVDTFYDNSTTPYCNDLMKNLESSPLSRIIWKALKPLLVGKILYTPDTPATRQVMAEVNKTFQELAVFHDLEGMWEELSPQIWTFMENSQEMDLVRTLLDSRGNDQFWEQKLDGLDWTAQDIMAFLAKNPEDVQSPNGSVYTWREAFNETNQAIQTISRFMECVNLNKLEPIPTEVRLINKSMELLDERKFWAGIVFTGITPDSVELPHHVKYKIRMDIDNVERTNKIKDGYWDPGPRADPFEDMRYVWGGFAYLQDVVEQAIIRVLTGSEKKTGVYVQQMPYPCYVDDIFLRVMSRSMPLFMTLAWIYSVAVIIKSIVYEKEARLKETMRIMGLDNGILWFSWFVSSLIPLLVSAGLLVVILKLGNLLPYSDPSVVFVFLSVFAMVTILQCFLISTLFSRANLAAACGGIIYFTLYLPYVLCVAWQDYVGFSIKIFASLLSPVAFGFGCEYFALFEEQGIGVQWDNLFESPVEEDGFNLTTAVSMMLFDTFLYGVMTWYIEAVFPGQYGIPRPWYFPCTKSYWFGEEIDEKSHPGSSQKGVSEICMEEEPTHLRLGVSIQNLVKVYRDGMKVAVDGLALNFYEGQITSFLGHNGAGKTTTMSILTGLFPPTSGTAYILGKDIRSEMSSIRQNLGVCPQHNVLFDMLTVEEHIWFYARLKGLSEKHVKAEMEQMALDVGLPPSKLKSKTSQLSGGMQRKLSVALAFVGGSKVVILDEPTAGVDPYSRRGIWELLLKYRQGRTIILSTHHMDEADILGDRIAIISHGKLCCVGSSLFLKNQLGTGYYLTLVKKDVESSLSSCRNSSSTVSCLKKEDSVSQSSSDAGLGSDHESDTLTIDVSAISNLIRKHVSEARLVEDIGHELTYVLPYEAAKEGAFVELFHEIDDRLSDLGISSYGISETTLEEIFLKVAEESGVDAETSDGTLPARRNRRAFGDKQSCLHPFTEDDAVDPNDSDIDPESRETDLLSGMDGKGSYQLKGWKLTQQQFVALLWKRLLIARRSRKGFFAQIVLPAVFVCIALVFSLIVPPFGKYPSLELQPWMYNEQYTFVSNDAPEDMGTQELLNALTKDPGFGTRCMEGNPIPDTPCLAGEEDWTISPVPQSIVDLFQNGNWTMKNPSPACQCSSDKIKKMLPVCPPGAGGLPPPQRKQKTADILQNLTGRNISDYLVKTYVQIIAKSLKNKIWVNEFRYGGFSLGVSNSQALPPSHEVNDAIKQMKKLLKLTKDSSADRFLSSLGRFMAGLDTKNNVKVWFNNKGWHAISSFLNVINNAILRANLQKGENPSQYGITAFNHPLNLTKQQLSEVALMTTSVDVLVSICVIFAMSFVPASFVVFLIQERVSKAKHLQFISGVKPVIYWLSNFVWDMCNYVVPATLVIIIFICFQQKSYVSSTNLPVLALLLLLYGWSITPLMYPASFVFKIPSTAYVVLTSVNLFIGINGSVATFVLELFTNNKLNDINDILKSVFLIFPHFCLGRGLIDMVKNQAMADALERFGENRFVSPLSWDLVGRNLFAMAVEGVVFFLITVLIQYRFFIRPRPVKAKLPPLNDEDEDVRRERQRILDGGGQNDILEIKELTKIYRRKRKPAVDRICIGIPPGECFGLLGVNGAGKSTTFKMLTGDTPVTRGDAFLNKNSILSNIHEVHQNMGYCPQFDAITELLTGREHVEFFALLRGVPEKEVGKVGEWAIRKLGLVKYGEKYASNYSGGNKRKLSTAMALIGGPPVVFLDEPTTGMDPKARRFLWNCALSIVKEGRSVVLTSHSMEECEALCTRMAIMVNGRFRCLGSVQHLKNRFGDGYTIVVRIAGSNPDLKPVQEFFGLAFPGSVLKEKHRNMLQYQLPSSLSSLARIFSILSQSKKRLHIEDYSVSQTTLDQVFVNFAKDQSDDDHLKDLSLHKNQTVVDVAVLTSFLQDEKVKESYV
Property: % cholesterol efflux/4 hours at 10 µg/ml; scope: individual binders

- BINDER: "ELREKLEAWFELFEEFFARFKS [N356-3]"
  DISPLAY_UNIT: "%"
  % cholesterol efflux/4 hours at 10 µg/ml: 5.13
- BINDER: "ELREKLEAWFELFAEFFARFKS [N356-4]"
  DISPLAY_UNIT: "%"
  % cholesterol efflux/4 hours at 10 µg/ml: 6.06
- BINDER: "ELREKLEAWFELFAEFFARFK [N356-5]"
  DISPLAY_UNIT: "%"
  % cholesterol efflux/4 hours at 10 µg/ml: 3.86
